Molecular target: T1, human GPC3-his tag protein (human, UniProt P51654 25-559, limits assumed)
T1 construct: recombinant soluble antigen used as analyte in all Biacore runs; also called recombinant GPC3 protein; rhGPC3-His; not shown: His tag
Assay: SPR Biacore 8K, mAb captured on CM5, single dose GPC3-his
Experimental: The binding of mouse monoclonal antibodies to human GPC3-his was tested with Biacore using a capture method. The antibodies were captured using CM5 sensor chip. A single dose of human GPC3-his tag protein was injected over captured antibody for 2 mins at a flow rate of 30 μl/min. The antigen was allowed to dissociate for 360 s. All the experiments were carried out on a Biacore 8K. Data analysis was carried out using Biacore 8K evaluation software.
MEASURED_QUANTITY: kon
# answer = value followed by unit

Check out these entries, answers already filled in.
* 171F9C5 mouse monoclonal antibody (antibody, V domains shown, mouse hybridoma antibody) VH: QVQLQQSGAELVRPGASVTLSCKASGYTFTDYEIHWVKQTPVHGLEWIGAIDPETDNTAYSQKFKGKAILTADKSSSTAYMELRSLTSEDSAVYYCTRYYSYAYWGQGTLVTVSA VL: DVVMTQTPLSLPVSLGDQASISCRSSQSPVHRNGNTYLHWYLQKPGQSPKLLIFKVSNRFSGVPDRFSGSGSGTDFTLKISRVAAEDLGVYFCSQTTHVPYTFGGGTKLEIK | 162000 M⁻¹ s⁻¹
* 163E7D12 mouse monoclonal antibody (antibody, V domains shown, mouse hybridoma antibody) VH: QVQLQQSGAELVRPGASVTLSCKASGYTFTDYEMHWVKQTPVHGLEWIGAIGPETGSTAYNQRFKGKAIVTADKSSSTAYMELRSLTSEDSAVYYCTRYYSFAYWGQGTLVTVSA VL: DVVMTQTPLSLPVSLGGQASISCRSSQSLVHSNGNTYLQWYLQKPGQSPKLLIFKVSNRFSGVPDRFSGSGSGTDFTLKISRVEAEDLGVYFCFQSIHVPYTFGGGTKLEIK | 223000 M⁻¹ s⁻¹
* 172B4E9 mouse monoclonal antibody (antibody, V domains shown, mouse hybridoma antibody) VH: QVQLQQSGAELVRPGASVTLSCKASGYTFTDYEIHWVKQTPVHGLEWIGAIDPATGDTAYTQKFKGKAILTADTSSNTVYMELRGLTSEDSAVHFCTRFYSYAYWGQGTLVTVSA VL: DVVMTQTPLSLPVSLGDQASISCRSSQSLVHTNGHTYLQWYLQKSGQSPRLLIFKVSNRFSGVPDRFSGSGSGTDFKLKISRVEAEDLGVYFCSQSTHVPYTFGGGTKLEIK | 202000 M⁻¹ s⁻¹

Turning now to a further record.
# input Read the entry 18C1D9 mouse monoclonal antibody (antibody, V domains shown, mouse hybridoma antibody) VH: QVQLQQSGAELVRPGASVTLSCKASGYTFSDYEMHWVKQTPVHGLEWIGAIDPETGGTAYNQKFKGKATLTADKSSSTAYMELRSLTSEDSAVYYCTRYYSYAYWGQGTLVTVSA VL: DVVMTQSPLSLPVSLGDQASISCRSRQSLVHSNGNTYLQWYLQKPGQSPKLLIYKVSNRFSGVPDRFSGSGSGTDFTLKISRVEAEDLGVYFCFQSIHVPYTFGGGTKLEKK and write its reported kon.
# output 262000 M⁻¹ s⁻¹
